Molecular target: T1, human ROR2 extracellular domain (ROR2 ECD recombinant protein) (human, UniProt Q01974 34-403)
T1 construct: also called human ROR2-ECD; hROR2-ECD
T1 sequence (Q01974 34-403): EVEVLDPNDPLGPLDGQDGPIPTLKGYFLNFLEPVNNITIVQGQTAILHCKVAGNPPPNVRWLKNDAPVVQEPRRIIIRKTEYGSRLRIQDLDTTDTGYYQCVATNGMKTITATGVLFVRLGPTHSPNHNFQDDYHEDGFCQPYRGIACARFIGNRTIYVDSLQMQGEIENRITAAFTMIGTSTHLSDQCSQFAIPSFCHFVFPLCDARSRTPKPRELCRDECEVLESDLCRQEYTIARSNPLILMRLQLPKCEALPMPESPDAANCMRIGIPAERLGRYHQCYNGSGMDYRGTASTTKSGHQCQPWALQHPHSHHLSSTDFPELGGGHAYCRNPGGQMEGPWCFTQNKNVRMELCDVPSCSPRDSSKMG
Assay: kinetic binding analysis, full length IgG1 on human ROR2-ECD
Parameter: kon (M⁻¹ s⁻¹)
API: value field is a number in M⁻¹ s⁻¹; no unit string.

Ask: Which kon value belongs to ROR2-241 full length human IgG1 antibody (antibody, V domains shown) VH: EVQLVQSGAEVKKPGASVKVSCKASGYTFTNYYIHWVRQAPGQGLEWMGIINPTSGRTRYAQRFQGRVTMTRDTSTNTVYMDLSSLRSEDTAMYYCARSGYYWGVNGDQWGQGTLVTVSS VL: SYELTQPLSVSVALGQTARITCGGNNIGSKNVHWYQQKPGQAPVLVIYRDSNRPSGIPERFSGSNSGNTATLTISRAQAGDEADYYCQVWDSSIVVFGGGTKLTVLG ?
Reply: 1.74e+06

Ask: Which kon value belongs to ROR2-240 full length human IgG1 antibody (antibody, V domains shown, also called clone #240 IgG1) VH: QITLKESGPELVKPTQTLTLTCTFSGFSLSTSGMSVSWIRQPPGKALEWLARIDWDDDKYYSTSLKTRLTISKDTSKNQVVLTMTNTDPVDTATYYCARGFYLAYGSYDSWGQGTLVTVSS VL: QSALTQPASVSGSPGQSITISCTGTSGDVGGYNYVSWYQHHPGKAPKLIIYDVNKRPSGFSDRFSGSKSGNTASLTISGLQAEDEADYYCSSYTSTSTVFGGGTKLTVLG ?
Reply: 706000
